# studySystem: T1, VISTA-His ECD (Sino Biological 13482-H08H) (human, UniProt Q9H7M9 33-194)
# T1 construct: Bought protein; also called VISTA-ECD; not shown: His tag
# measurementProtocol: BLI (Octet K2), ratio of off-rates at pH 7.4 to control Ab No. 245.1
Listing: Kdis (pH 7.4) ÷ Kdis, Ab No. 245.1 (pH 7.4) of selected binders

Check out these entries, answers already filled in.
Antibody No. 474.1 with VL Y32H, VH Y32H, VH Y52H (antibody, V domains shown) VH: QVQLQESGPGLVKPSETLSLTCTVSGGSISSHYWSWIRQPPGKGLEWIGYIHYSGSTNYNPSLKSRVTISVDTSKSQFSLKLSSVTAADTAVYYCARDIPAFAFDIWGQGTMVIVSS VL: EIVLTQSPATLSLSPGERATLSCRASQSVSYHLAWYQQKPGQAPRLLIYDAFNRATGIPARFSGSGSGTDFTLTISSLEPEDFAVYYCQQRINWPLTFGGGTKVEIK    71 s⁻¹
Antibody No. 474.1 with VH Y32H, VH Y33H, VH Y52H (antibody, V domains shown) VH: QVQLQESGPGLVKPSETLSLTCTVSGGSISSHHWSWIRQPPGKGLEWIGYIHYSGSTNYNPSLKSRVTISVDTSKSQFSLKLSSVTAADTAVYYCARDIPAFAFDIWGQGTMVIVSS VL: EIVLTQSPATLSLSPGERATLSCRASQSVSYYLAWYQQKPGQAPRLLIYDAFNRATGIPARFSGSGSGTDFTLTISSLEPEDFAVYYCQQRINWPLTFGGGTKVEIK    14 s⁻¹

Requested read-out: Kdis (pH 7.4) ÷ Kdis, Ab No. 245.1 (pH 7.4). Entry: Antibody No. 474.1 with VL Y32H, VH Y32H, VH Y33H (antibody, V domains shown) VH: QVQLQESGPGLVKPSETLSLTCTVSGGSISSHHWSWIRQPPGKGLEWIGYIYYSGSTNYNPSLKSRVTISVDTSKSQFSLKLSSVTAADTAVYYCARDIPAFAFDIWGQGTMVIVSS VL: EIVLTQSPATLSLSPGERATLSCRASQSVSYHLAWYQQKPGQAPRLLIYDAFNRATGIPARFSGSGSGTDFTLTISSLEPEDFAVYYCQQRINWPLTFGGGTKVEIK 56 s⁻¹
